The measured values listed here are drawn from ChEMBL document CHEMBL5032489.

ASSAY EXPLANATION: Cmax in two-kidney two clip renovascular hypertensive Sprague-Dawley rat model at 15 mg/kg, po by HPLC-MS/MS analysis
Assay type: ADME, organism-based
Parameters: route oral, dose 15 mg/kg
CONDITION DETAILS: in vivo
RECORDED METRIC: Cmax
Write the numeric value and follow it with the unit.

Task: What does the record list as Cmax for CCOC(=O)[C@@H](Cc1ccc(F)cc1)NC(=O)[C@@H](CC1CCCCC1)NC(=O)[C@@H](C)NC(=O)/C=C/c1ccc(O)c(O)c1 ?
Output: 220 ng/mL

---

RECORDED METRIC: pIC50
Just the number, please; pIC50 means minus log10 of the concentration in mol/L.

Task: Notebook entry, Type-1 angiotensin II receptor (Homo sapiens) assay: pIC50 of CCOC(=O)[C@@H](Cc1ccc(F)cc1)NC(=O)[C@@H](CC1CCCCC1)NC(=O)[C@@H](C)NC(=O)/C=C/c1ccc(O)c(O)c1 = ?
Output: 7.71
